# target.or.test.system: HiBit-BRG1 fusion protein (Homo sapiens)
# Construct: expressed in transfected cells
# assay.name: HiBiT-BRG1 cell-based degradation assay (Nano-Glo HiBiT Lytic Detection, 24 h)
# recorded.conditions: stable HeLa cell line expressing HiBit-BRG1 and LgBit, top dose 30 μM, read-out: BRG1 HiBit Degradation Maximum (%)
Let's look at some compounds and their measured Dmax.

Answered examples (3):
Form field - read-out: Dmax; system: HiBit-BRG1 fusion protein (Homo sapiens); submitted item: Nc1nnc(-c2ccccc2O)cc1OCC12CC(C(=O)NCCOc3ccc4c(c3)C(=O)N(C3CCC(=O)NC3=O)C4=O)(C1)C2 (stereo not drawn)
< 50%

Form field - read-out: Dmax; system: HiBit-BRG1 fusion protein (Homo sapiens); submitted item: Nc1nnc(-c2ccccc2O)cc1OCC12CC(CNC(=O)CCCCCCCCNc3ccc4c(c3)C(=O)N(C3CCC(=O)NC3=O)C4=O)(C1)C2 (stereo not drawn)
< 50%

Form field - read-out: Dmax; system: HiBit-BRG1 fusion protein (Homo sapiens); submitted item: Nc1nnc(-c2ccccc2O)cc1OCC12CC(C(=O)N3CCC(CCCCN4CCN(c5ccc6c(c5)C(=O)N(C5CCC(=O)NC5=O)C6=O)CC4)CC3)(C1)C2 (stereo not drawn)
> 50%

***
Form field - read-out: Dmax; system: HiBit-BRG1 fusion protein (Homo sapiens); submitted item: Nc1nnc(-c2ccccc2O)cc1OCCC12CC(NC(=O)CCCCOc3cccc4c3C(=O)N(C3CCC(=O)NC3=O)C4=O)(C1)C2 (stereo not drawn)
< 50%

Form field - read-out: Dmax; system: HiBit-BRG1 fusion protein (Homo sapiens); submitted item: Nc1nnc(-c2ccccc2O)cc1OCC12CC(CNC(=O)CCOCCOCCOc3ccc4c(c3)C(=O)N(C3CCC(=O)NC3=O)C4=O)(C1)C2 (stereo not drawn)
< 50%

Form field - read-out: Dmax; system: HiBit-BRG1 fusion protein (Homo sapiens); submitted item: Nc1nnc(-c2ccccc2O)cc1OCC12CC(CNC(=O)C3CC3CNC(=O)COc3ccc4c(c3)C(=O)N(C3CCC(=O)NC3=O)C4=O)(C1)C2 (stereo not drawn)
< 50%

###

# target.or.test.system: HiBit-BRG1 fusion protein (Homo sapiens, UniProt P51532)
# Construct: expressed in transfected cells
# Sequence (P51532 whole entry, the tested form may be a part): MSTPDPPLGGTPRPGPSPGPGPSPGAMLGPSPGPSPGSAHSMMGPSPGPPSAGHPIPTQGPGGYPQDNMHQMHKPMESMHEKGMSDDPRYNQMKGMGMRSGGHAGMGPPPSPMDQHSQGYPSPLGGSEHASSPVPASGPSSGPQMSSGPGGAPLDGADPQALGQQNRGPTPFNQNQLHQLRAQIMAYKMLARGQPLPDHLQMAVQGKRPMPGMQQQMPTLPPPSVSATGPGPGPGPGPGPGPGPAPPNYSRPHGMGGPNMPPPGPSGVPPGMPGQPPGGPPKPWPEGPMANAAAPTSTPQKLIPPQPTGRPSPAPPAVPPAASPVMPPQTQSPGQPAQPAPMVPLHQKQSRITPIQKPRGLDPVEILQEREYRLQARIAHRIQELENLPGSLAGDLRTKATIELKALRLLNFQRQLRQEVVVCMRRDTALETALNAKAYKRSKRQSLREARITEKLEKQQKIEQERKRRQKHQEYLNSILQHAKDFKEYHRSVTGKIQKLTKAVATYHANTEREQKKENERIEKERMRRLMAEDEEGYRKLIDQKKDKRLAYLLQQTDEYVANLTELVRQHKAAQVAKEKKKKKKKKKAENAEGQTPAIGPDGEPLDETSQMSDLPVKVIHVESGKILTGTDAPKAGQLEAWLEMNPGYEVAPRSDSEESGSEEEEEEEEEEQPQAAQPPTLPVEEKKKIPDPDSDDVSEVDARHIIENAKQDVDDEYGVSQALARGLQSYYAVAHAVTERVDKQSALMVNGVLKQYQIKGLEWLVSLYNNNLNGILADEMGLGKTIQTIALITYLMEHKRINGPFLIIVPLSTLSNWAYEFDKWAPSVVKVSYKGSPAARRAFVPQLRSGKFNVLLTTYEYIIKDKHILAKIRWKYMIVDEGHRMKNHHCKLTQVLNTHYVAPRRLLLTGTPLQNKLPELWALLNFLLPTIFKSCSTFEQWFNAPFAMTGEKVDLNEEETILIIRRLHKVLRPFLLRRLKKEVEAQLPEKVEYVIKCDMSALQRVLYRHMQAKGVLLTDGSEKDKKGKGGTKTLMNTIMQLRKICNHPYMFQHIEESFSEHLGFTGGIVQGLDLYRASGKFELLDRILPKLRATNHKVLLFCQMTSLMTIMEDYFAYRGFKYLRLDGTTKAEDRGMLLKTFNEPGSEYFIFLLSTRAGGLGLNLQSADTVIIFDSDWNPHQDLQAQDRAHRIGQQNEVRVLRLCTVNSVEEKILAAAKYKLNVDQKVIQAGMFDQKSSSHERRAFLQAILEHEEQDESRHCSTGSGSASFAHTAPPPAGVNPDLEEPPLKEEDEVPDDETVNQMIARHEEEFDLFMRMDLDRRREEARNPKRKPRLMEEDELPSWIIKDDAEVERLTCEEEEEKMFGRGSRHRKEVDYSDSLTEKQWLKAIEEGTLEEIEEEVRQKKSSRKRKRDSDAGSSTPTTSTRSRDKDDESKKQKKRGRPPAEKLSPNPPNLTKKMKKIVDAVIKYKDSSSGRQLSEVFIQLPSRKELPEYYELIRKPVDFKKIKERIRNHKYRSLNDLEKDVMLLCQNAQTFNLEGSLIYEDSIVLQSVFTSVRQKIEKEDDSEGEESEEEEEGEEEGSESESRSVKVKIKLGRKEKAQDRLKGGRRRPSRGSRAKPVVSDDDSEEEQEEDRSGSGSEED
# assay.name: HiBiT-BRG1 cell-based degradation assay (Nano-Glo HiBiT Lytic Detection, 24 h)
# recorded.conditions: stable HeLa cell line expressing HiBit-BRG1 and LgBit, top dose 30 μM, read-out: BRG1 HiBit Degradation Maximum (%)
Let's look at some compounds and their measured Dmax.

Answered examples (2):
Sample Nc1nnc(-c2ccccc2O)cc1OCC12CC(CNC(=O)CCOCCOCCOc3cccc4c3C(=O)N(C3CCC(=O)NC3=O)C4=O)(C1)C2 (stereo not drawn) [Compound 14] — what was its Dmax?
< 50%

Sample Nc1nnc(-c2ccccc2O)cc1OCC12CC(C(=O)NCCOC3CN(c4ccc5c(c4)C(=O)N(C4CCC(=O)NC4=O)C5=O)C3)(C1)C2 (stereo not drawn) [Compound 81] — what was its Dmax?
> 50%

***
Sample Nc1nnc(-c2ccccc2O)cc1OCCC12CC(NC(=O)CCN3CC4(C3)CN(c3ccc5c(c3)C(=O)N(C3CCC(=O)NC3=O)C5=O)C4)(C1)C2 (stereo not drawn) [Compound 34] — what was its Dmax?
< 50%

Sample Nc1nnc(-c2ccccc2O)cc1OCC12CC(C(=O)N3CCN(CCOc4ccc5c(c4)C(=O)N(C4CCC(=O)NC4=O)C5=O)CC3)(C1)C2 (stereo not drawn) [Compound 103, formic acid] — what was its Dmax?
< 50%

Sample Nc1nnc(-c2ccccc2O)cc1OCC12CC(CNC(=O)CCCCCCCCNc3cccc4c3C(=O)N(C3CCC(=O)NC3=O)C4=O)(C1)C2 (stereo not drawn) [Compound 7] — what was its Dmax?
< 50%

Sample Cc1nc2cccc(NCCCCCCNC(=O)C34CC(COc5cc(-c6ccccc6O)nnc5N)(C3)C4)c2c(=O)n1C1CCC(=O)NC1=O (stereo not drawn) [Compound 67] — what was its Dmax?
< 50%
